Data provenance is ChEMBL document CHEMBL3525983.

experiment: Drug excretion in F344/DuCrlCrlj rat feces treated with [14C]rivoglitazone at 1 mg/kg, po administered via gavage measured during 0 to 48 hrs by radio-HPLC analysis; format: ADME, organism-based; design: dose 1 mg/kg, dosed compound name [14C]Rivoglitazone, route oral; settings: in vivo
measurement-kind: Compound recovery

INSERT INTO results (compound, measurement_kind, reported_measurement) VALUES
  ('CSC(Cc1ccc(OCc2nc3ccc(O[C@@H]4O[C@H](C(=O)O)[C@@H](O)[C@H](O)[C@H]4O)cc3n2C)cc1)C(N)=O (stereo partly specified)', 'Compound recovery', 'metabolite_not_detected'),
  ('COc1ccc2nc(COc3ccc(CC4SC(=O)N([C@@H]5O[C@H](C(=O)O)[C@@H](O)[C@H](O)[C@H]5O)C4=O)cc3)n(C)c2c1 (stereo partly specified)', 'Compound recovery', 'metabolite_not_detected'),
  ('Cn1c(COc2ccc(CC3SC(=O)NC3=O)cc2)nc2ccc(OS(=O)(=O)O)cc21 (stereo unspecified)', 'Compound recovery', 'metabolite_not_detected'),
  ('COc1ccc2nc(COc3ccc(CC(C(N)=O)[S+](C)[O-])cc3)n(C)c2c1 (stereo unspecified)', 'Compound recovery', 'metabolite_not_detected'),
  ('Cn1c(COc2ccc(CC3SC(=O)NC3=O)cc2)nc2ccc(O[C@@H]3O[C@H](C(=O)O)[C@@H](O)[C@H](O)[C@H]3O)cc21 (stereo partly specified)', 'Compound recovery', 'metabolite_not_detected');

// field: Compound recovery; key: CSC(Cc1ccc(OCc2nc3ccc(O)cc3n2C)cc1)C(N)=O (stereo unspecified) ; value = 8.7%

Measured Compound recovery of Cn1c(COc2ccc(CC(C(N)=O)[S+](C)[O-])cc2)nc2ccc(OS(=O)(=O)O)cc21 (stereo unspecified) : metabolite_not_detected

response.value for Cn1c(COc2ccc(CC(C(N)=O)S(C)(=O)=O)cc2)nc2ccc(OS(=O)(=O)O)cc21 (stereo unspecified) (field: Compound recovery) = metabolite_not_detected

Entry Cn1c(COc2ccc(CC3SC(=O)NC3=O)cc2)nc2ccc(O)cc21 (stereo unspecified) , Compound recovery reported as 25.6%

Looking up COc1ccc2nc(COc3ccc(CC(C(N)=O)S(C)(=O)=O)cc3)n(C)c2c1 (stereo unspecified) , I see its Compound recovery listed as metabolite_not_detected

Data point: COc1ccc2nc(COc3ccc(CC(SC)C(=O)O)cc3)n(C)c2c1 (stereo unspecified) ; Compound recovery = 3%

----------
test: Terminal elimination half life in monkey at 0.0986 mg/kg, iv administered via tail vein by LC-MS/MS analysis; type: ADME, organism-based, Macaca mulatta; design: dose 0.0986 mg/kg, dosed compound name [14C]Rivoglitazone, route intravenous; details: rhesus monkey, in vivo, read-out: beta t1/2 (converted)
measurement-kind: half-life (h)
Give a bare numeral; the unit h is implied.

Lab note: measured half-life of COc1ccc2nc(COc3ccc(CC4SC(=O)NC4=O)cc3)n(C)c2c1.Cl (racemic) was 6.38

----------
assay: Terminal elimination half life in F344/DuCrlCrlj rat at 0.5 mg/kg, iv administered via tail vein by LC-MS/MS analysis; assay type: ADME, organism-based; set-up: dose 0.5 mg/kg, dosed compound name [14C]Rivoglitazone, route intravenous; details: in vivo, read-out: beta t1/2 (converted)
measurement-kind: half-life

According to the records, this molecule COc1ccc2nc(COc3ccc(CC4SC(=O)NC4=O)cc3)n(C)c2c1.Cl (racemic) displays half-life of 4.84 h
